Provenance of the data: paper PMC8854749

- Tested on: MDCK cells
- Test Method Notes: Cell Counting Kit-8 (CCK-8) cell viability, non-tumor cell line
- Format: cell-based, canine
- Protocol Conditions: Canis lupus familiaris; MDCK cells (non-tumor canine cell line), 48 h, CCK-8
Value Type: IC50

get_value(item= CC1=C(O)C(=O)C=C2C1=CC=C1[C@@]2(C)CC[C@@]2(C)[C@@H]3C[C@](C)(C(=O)O)CC[C@]3(C)CC[C@]12C , readout=IC50) returns 1860 nM

----------
- Tested on: MDCK cells
- Test Method Notes: Cell Counting Kit-8 (CCK-8) cell viability, non-tumor cell line
- Format: cell-based, canine
- Protocol Conditions: Canis lupus familiaris; MDCK cells (non-tumor canine cell line), 24 h, CCK-8
Value Type: IC50 (nM)
Kindly provide the numeric value in nM only, without the unit symbol.

CC1=C(O)C(=O)C=C2C1=CC=C1[C@@]2(C)CC[C@@]2(C)[C@@H]3C[C@](C)(C(=O)O)CC[C@]3(C)CC[C@]12C [celastrol, Celastrol] tested on MDCK cells gave IC50: 1810

----------
- Test system: CIPp cells
- Test Method Notes: Cell Counting Kit-8 (CCK-8) cell viability
- Type: cell-based, canine
- Protocol Conditions: Canis lupus familiaris, 24 h, CCK-8
Value Type: IC50 (µM)
Your answer is read as µM, so omit the unit and give the number.

Just so you know, measured IC50 for CC1=C(O)C(=O)C=C2C1=CC=C1[C@@]2(C)CC[C@@]2(C)[C@@H]3C[C@](C)(C(=O)O)CC[C@]3(C)CC[C@]12C [celastrol, Celastrol] came out at 1.16

----------
- System: CMT-7364 cells
- Test Method Notes: Cell Counting Kit-8 (CCK-8) cell viability
- Format: cell-based, canine
- Protocol Conditions: Canis lupus familiaris, 24 h, CCK-8
Value Type: pIC50
Units for pIC50: none; it is -log10 of a concentration expressed in mol/L.

CC1=C(O)C(=O)C=C2C1=CC=C1[C@@]2(C)CC[C@@]2(C)[C@@H]3C[C@](C)(C(=O)O)CC[C@]3(C)CC[C@]12C has a reported pIC50 of 5.91
